B1: CPEB3 Ribozyme (parent)
chain: UAACAGGGGGCCACAGCAGAAGCGUUCACGUCGCAGCCCCUGUCAGAUUCUGGUGAAUCUGCGAAUUCUGCUGUAUAUCUC

# Variants of: B1
# Procedure summary: self-cleavage, relative activity (ratio to wild type); higher = more cleavage; in vitro, sequencing
Recorded metric: self-cleavage
Give bare numbers.

>>> assay_value("UAACAGGGGGUCACAGCAGAAGUGUUCACGUCGCAGCCCCUGUCAGAUUCUGGUGAAUCUGCGAAUUCUGCUGUAUAUCUC")
0.24
>>> assay_value("UAACAGGGGGCCACAGCAGAAGCGUUCACGUCGCAGCCCCUGUCAGAUGCUGGUGAAUCUGCGAAUUCCGCUGUAUAUCUC")
0.21
>>> assay_value("UAACAGGGGGCCACAGCAGAGGCGUUCACGUCGCAGCCCCUGGCAGAUUCUGGUGAAUCUGCGAAUUCUGCUGUAUAUCUC")
0.14

Give self-cleavage for each listed item.
1. UAACAGGGGGCCACAGCAGAAGCGUUCACGUCGUAGCCCCUGUCAGAUUCUGGUGAAUCUGCGUAUUCUGCUGUAUAUCUC
2. UAACAGGGGGCCACAGCAGAAGCGUACACGUCUCAGCCCCUGUCAGAUUCUGGUGAAUCUGCGAAUUCUGCUGUAUAUCUC

Response line:
[0.13, 0.1]

Give self-cleavage for each listed item.
1. UAACAGGGGGCCACUGCAGGAGCGUUCACGUCGCAGCCCCUGUCAGAUUCUGGUGAAUCUGCGAAUUCUGCUGUAUAUCUC
2. UAACAGGGGGCCACAGCAGAAGCGUCCACGUCGCAGCCCCUGUCAGAUUCUCGUGAAUCUGCGAAUUCUGCUGUAUAUCUC
3. UAACAGGGGGCCACAGCAGAAGCGUUCACGUCGCAGCCCCUGUCAGAUUCUGGUGAAUCUGGGGAUUCUGCUGUAUAUCUC
4. UAACAGGGGGCCACAGUAGAAGCGUUCACGUCGCAGCCCUUGUCAGAUUCUGGUGAAUCUGCGAAUUCUGCUGUAUAUCUC
5. UAACAGGGGACCACAGCAGAAGCGUUCACGUCGCAGCCCCUGUCAGAUUCUGGUGAAUCCGCGAAUUCUGCUGUAUAUCUC

Response line:
1. 0.41
2. 0.27
3. 0.22
4. 0.21
5. 0.2

Give self-cleavage for each listed item.
1. UAACAGGGGGCUACAGCAGAAGCGUUCACGUCGCAGCCCCUGUCAGAUUCUGGUGAAUCUGCAAAUUCUGCUGUAUAUCUC
2. UAACAGGGGGCCACAGCAGAAACGUUCACGUCGCAGCCCCUGUCAGAUUCUGGUGAAUCUGCGAAUUCUGCCGUAUAUCUC

Response line:
1. 1.39
2. 0.23

Give self-cleavage for each listed item.
1. UAACAGGGGGCCACAGCAAAAGCGUUCACGUCGCAGCCCCUGUCAGACUCUGGUGAAUCUGCGAAUUCUGCUGUAUAUCUC
2. UAACAGGGGGCCACAGCAGAAGCGUUCACGCCGCAGCCCCUGUCAGAUUCUGGUGAGUCUGCGAAUUCUGCUGUAUAUCUC
3. UGACAGGGGGCCACAGCAGAAGCGUUCACGUCGUAGCCCCUGUCAGAUUCUGGUGAAUCUGCGAAUUCUGCUGUAUAUCUC
4. UAACAGGGGGCCACUGCAGAAGCGUUCACGUCGCAGCCCCCGUCAGAUUCUGGUGAAUCUGCGAAUUCUGCUGUAUAUCUC

Response line:
1: 0.16; 2: 0.75; 3: 0.29; 4: 0.92

Give self-cleavage for each listed item.
1. UAACAGGGGGCCACAGCAGAAGCGUUCACGUCGCAACCCCUGUCAGAUUCUGGUGAAUCCGCGAAUUCUGCUGUAUAUCUC
2. UAACUGGGGGCCACAGCAGAAGCGUUCACGUCACAGCCCCUGUCAGAUUCUGGUGAAUCUGCGAAUUCUGCUGUAUAUCUC

Response line:
0.13
0.27

Prompt line: Please report the recorded self-cleavage for UAACGGGGGGCCACAGCAGAAGCGUUCACGCCGCAGCCCCUGUCAGAUUCUGGUGAAUCUGCGAAUUCUGCUGUAUAUCUC .
Response line: 0.48

These data points were gathered from the RNAGym collection of RNA variant scans (doi:10.1093/nar/gkz1192).
